molecular target: T1, human insulin-like growth factor-II (IGF-II) (human, UniProt P01344 25-91); assay: Biacore low-resolution analysis, IGF-II
T1 construct: also called IGF2; IGF-2
The entries below come with measured pKd values attached.
Here pKd is given on a logarithmic scale as minus log10 of the concentration in mol/L.

Example entries and their recorded answers appear below.
mAb 7.251.3 (antibody, V domains shown, Fully human XenoMouse hybridoma mAb, lambda light chain (V1-13/JL2); also called ATCC PTA-7422) VH: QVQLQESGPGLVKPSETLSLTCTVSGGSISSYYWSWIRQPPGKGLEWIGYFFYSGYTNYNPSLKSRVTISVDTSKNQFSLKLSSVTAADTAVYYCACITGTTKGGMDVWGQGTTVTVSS VL: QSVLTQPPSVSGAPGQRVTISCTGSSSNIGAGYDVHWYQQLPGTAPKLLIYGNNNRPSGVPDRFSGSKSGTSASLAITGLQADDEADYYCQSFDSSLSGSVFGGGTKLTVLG
9.91
mAb 7.159.2 (antibody, V domains shown, Fully human XenoMouse hybridoma mAb, lambda light chain (V1-19/JL2); Sister clones 7.159.1 and 7.159.2 are said to be identical; also called 7.159.1; 7_159_1) VH: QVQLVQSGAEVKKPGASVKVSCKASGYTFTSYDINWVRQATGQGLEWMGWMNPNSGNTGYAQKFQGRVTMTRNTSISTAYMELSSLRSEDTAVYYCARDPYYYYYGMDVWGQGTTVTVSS VL: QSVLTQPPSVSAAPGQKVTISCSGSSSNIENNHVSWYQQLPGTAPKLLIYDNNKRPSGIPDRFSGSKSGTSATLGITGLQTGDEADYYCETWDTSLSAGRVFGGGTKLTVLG
11.54
mAb 7.234.2 (antibody, V domains shown, Kappa light chain (L5/JK3); also called 7.234.1; 7_234_1) VH: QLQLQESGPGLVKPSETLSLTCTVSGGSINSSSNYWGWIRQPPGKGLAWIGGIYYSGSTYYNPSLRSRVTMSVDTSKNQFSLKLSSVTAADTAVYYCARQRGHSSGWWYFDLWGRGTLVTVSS VL: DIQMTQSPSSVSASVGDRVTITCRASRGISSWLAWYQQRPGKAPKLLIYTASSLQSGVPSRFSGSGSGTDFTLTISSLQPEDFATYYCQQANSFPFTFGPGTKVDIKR
10.34

Consider the binder shown here: mAb 7.34.1 (antibody, V domains shown, Fully human XenoMouse hybridoma mAb, lambda light chain (V1-13/JL2); also called ATCC PTA-7423) VH: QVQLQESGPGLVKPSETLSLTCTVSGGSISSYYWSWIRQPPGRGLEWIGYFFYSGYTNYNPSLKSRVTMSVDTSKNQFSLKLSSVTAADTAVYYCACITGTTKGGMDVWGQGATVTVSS VL: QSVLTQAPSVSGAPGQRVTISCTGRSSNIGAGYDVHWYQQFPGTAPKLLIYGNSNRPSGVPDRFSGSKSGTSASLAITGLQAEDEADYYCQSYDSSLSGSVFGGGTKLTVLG What is its recorded pKd?
10.22

FYI, the data here is from patent US20070196376A1.
